- testSystem: Human CDK12 wt/CycK (Homo sapiens (Human), UniProt Q9NYV4)
- Sequence (Q9NYV4 whole entry): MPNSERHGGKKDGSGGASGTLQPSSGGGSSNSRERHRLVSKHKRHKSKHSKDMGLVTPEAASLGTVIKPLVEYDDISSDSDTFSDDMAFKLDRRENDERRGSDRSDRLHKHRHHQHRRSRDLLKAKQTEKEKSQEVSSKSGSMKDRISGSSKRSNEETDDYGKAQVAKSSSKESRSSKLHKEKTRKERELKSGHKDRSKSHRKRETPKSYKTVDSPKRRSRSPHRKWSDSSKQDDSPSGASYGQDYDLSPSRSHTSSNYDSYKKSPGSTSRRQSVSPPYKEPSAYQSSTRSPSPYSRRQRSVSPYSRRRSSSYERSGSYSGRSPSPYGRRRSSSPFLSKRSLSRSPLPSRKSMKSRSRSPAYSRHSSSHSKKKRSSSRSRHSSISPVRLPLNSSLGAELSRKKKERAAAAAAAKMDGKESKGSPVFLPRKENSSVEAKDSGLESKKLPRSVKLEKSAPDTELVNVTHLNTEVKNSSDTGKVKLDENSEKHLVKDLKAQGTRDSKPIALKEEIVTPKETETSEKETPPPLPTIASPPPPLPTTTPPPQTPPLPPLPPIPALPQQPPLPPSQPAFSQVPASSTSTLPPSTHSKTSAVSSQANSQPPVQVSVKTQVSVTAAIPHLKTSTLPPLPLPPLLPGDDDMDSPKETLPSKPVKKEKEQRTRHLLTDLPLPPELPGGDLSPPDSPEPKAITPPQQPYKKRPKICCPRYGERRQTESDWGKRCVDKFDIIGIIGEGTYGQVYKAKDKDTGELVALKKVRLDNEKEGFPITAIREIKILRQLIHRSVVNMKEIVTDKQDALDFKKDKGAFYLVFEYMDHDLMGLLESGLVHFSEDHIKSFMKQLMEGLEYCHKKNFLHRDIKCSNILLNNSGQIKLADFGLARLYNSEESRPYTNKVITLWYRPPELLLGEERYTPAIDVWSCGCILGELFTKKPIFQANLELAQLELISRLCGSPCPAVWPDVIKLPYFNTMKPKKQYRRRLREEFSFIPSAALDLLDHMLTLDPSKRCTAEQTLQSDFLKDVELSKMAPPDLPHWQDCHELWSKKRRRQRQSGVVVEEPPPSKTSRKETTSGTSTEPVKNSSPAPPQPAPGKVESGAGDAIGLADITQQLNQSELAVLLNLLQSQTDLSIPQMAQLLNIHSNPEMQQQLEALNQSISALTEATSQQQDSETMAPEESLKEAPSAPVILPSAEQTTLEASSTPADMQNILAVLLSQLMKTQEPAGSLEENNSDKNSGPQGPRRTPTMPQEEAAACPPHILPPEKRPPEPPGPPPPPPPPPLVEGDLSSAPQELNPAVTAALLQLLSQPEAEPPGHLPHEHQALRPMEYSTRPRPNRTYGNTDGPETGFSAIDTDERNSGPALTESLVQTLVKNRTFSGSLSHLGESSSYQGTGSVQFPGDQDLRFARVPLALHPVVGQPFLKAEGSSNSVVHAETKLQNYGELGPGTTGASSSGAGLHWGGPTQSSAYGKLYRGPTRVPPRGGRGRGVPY
- Sequence (O75909 whole entry partner): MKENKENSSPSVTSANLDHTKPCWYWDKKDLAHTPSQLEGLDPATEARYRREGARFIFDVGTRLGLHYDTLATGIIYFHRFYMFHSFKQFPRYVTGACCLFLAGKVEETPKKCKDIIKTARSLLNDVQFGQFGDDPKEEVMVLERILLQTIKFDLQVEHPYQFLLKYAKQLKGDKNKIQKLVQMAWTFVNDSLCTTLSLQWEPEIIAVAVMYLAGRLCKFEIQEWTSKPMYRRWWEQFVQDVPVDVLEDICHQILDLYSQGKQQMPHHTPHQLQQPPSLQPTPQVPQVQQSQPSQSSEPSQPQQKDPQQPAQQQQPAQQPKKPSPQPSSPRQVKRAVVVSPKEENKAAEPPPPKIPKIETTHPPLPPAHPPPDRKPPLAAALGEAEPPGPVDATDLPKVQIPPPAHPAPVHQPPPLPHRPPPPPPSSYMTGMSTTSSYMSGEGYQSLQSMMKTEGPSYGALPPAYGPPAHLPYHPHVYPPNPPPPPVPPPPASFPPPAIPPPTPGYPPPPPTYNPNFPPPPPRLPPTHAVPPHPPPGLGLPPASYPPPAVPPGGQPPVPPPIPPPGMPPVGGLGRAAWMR
- assayComment: Radiometric protein kinase assay (33PanQinase Activity Assay), CDK12
- Assay type: biochemical
- experimentalParameters: ratio of CDK7 IC50 to CDK12 IC50; greater than 1 indicates selectivity for CDK12
Could you please report measured CDK7/CDK12 for the items listed next?
API doc: respond with a numeric literal and nothing else, no unit.

Give the reported CDK7/CDK12 for O=C1C[C@H](Nc2cc(NCc3ccc(-c4ccccn4)cc3)n3ncc(C4CC4)c3n2)CN1 [PPA-075] (system: Human CDK12 wt/CycK (Homo sapiens (Human), UniProt Q9NYV4)).
32.6

Lookup: CDK7/CDK12 / Human CDK12 wt/CycK (Homo sapiens (Human), UniProt Q9NYV4) / O[C@H]1CNCC[C@@H]1CNc1cc(NCc2ccc(-c3cscn3)cc2)n2ncc(C3CC3)c2n1 [PPA-035]
2.2

Provide value of CDK7/CDK12 for this record tested with Human CDK12 wt/CycK (Homo sapiens (Human), UniProt Q9NYV4): COc1cccnc1-c1ccc(CNc2cc(NC[C@H]3CCNC[C@@H]3O)nc3c(C4CC4)cnn23)cc1 [PPA-027]
1.8

* * *

- testSystem: Human CDK12 wt/CycK (Homo sapiens (Human), UniProt Q9NYV4)
- assayComment: Radiometric protein kinase assay (33PanQinase Activity Assay), CDK12
- Type: biochemical
- experimentalParameters: ratio of CDK7 IC50 to CDK12 IC50; greater than 1 indicates selectivity for CDK12
readoutType: CDK7/CDK12
Please state the value as a number alone, without comment.

Human CDK12 wt/CycK (Homo sapiens (Human), UniProt Q9NYV4) / CDK7/CDK12 / O[C@H]1CNCC[C@@H]1CNc1cc(NCc2ccc(-c3ccccn3)cn2)n2ncc(C3CC3)c2n1 [PPA-021] : value?
5.7

Which CDK7/CDK12 is reported with Human CDK12 wt/CycK (Homo sapiens (Human), UniProt Q9NYV4) for this entry: NC1CN(c2cc(NCc3ccc(-c4ccccn4)cc3)n3ncc(C4CC4)c3n2)C1 [PPA-057] ?
10.7

Please tell me: CDK7/CDK12 of Fc1cc(-c2ccccn2)ccc1CNc1cc(N[C@H]2CCNC2)nc2c(C3CC3)cnn12 [PPA-072] , system Human CDK12 wt/CycK (Homo sapiens (Human), UniProt Q9NYV4)?
29.4

Fill in the recorded CDK7/CDK12 for this compound, with Human CDK12 wt/CycK (Homo sapiens (Human), UniProt Q9NYV4) as test system: CC(C)c1cnn2c(NCc3ccc(-c4ncccn4)cc3)cc(NC[C@H]3CCNC[C@@H]3O)nc12 [PPA-007]
2.2

For Human CDK12 wt/CycK (Homo sapiens (Human), UniProt Q9NYV4), provide CDK7/CDK12 of CCc1cnn2c(NCc3ccc(-c4ccccc4)cc3F)cc(NC[C@H]3CCNC[C@@H]3O)nc12 [PPA-069] please.
2.2

// fetch Human CDK12 wt/CycK (Homo sapiens (Human), UniProt Q9NYV4) CDK7/CDK12 for CO[C@H]1CNCC[C@@H]1CNc1cc(NCc2ccc(-c3ccccn3)cc2)n2ncc(C3CC3)c2n1 [PPA-087]
3.2

// map O[C@H]1CNCC[C@@H]1CNc1cc(NCc2ccc(-c3ccccn3)cc2F)n2ncc(C3CC3)c2n1 [PPA-020] to recorded CDK7/CDK12 (system: Human CDK12 wt/CycK (Homo sapiens (Human), UniProt Q9NYV4))
3.1

Please provide the recorded CDK7/CDK12 for O[C@H]1CNCC[C@@H]1CNc1cc(NCc2ccc(-c3ncco3)cc2)n2ncc(C3CC3)c2n1 [PPA-031] , tested on Human CDK12 wt/CycK (Homo sapiens (Human), UniProt Q9NYV4).
2.6

Data origin, for the record: patent US20240383900A1
